Overview of recorded Kb for various compounds
molecular target: human-KOR (Homo sapiens); test: Calcium mobilization assay, CHO-KOR cells expressing Gαqi5; assay type: cell-based; set-up: expressed in transfected cells; gift of Dr. Larry Toll (SRI International); infected with a retrovirus for Gαqi5
Sequence (P41145 whole entry): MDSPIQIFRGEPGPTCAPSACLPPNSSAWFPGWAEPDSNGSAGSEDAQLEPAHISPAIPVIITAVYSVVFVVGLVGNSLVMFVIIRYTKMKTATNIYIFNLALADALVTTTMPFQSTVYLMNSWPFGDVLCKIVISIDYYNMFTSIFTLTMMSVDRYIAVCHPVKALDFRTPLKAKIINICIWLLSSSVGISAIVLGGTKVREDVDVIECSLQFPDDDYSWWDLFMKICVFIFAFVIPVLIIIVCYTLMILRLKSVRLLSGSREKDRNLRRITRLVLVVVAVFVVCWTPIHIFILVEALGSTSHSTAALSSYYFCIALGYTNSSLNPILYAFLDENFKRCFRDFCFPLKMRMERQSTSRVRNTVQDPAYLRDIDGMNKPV
Answer in nM, number only, no unit symbol.

C[C@H]1[C@H]2Cc3ccc(O)cc3[C@]1(C)CCN2CCC(=O)Nc1ccc(C#N)cc1 | 1260
C[C@H]1[C@H]2Cc3ccc(O)cc3[C@]1(C)CCN2CCC(=O)N(c1ccccc1)c1ccccc1 | 776
CC1C2Cc3ccc(O)cc3C1(C)CCN2CCC(=O)Nc1cccc2ccccc12 (stereo not shown) | 1380

Moving on to another compound below.
# input Please state recorded Kb (tested on human-KOR (Homo sapiens)) of `Cc1ccc(NC(=O)CCN2CC[C@@]3(C)c4cc(O)ccc4C[C@@H]2[C@@H]3C)cc1`
# output 1410
